Biological target: human LAP-TGFβ1 expressed on P3U1 cells (human, UniProt P01137 30-390)
Sequence (P01137 30-390): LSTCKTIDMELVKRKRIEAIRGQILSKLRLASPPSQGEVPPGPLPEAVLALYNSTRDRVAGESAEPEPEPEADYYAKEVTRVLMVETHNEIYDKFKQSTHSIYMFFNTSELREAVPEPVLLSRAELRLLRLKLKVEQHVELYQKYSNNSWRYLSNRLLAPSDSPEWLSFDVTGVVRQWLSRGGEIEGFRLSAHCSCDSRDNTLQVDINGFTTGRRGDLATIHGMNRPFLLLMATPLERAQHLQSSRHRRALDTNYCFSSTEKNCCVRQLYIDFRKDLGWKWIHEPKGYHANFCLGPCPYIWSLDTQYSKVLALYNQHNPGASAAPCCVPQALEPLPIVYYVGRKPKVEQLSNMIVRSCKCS
Experiment: cell-based or functional assay
value_kind: Average EC50 (µg/mL)
Report only the number, with the unit µg/mL understood.

binder	value_units	Average EC50
17BLM (antibody, human IgG1, kappa, L234A L235A, V domains shown) VH: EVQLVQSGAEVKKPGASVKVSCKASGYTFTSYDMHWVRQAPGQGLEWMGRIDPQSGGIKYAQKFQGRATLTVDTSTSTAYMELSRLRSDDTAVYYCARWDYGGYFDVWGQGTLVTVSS VL: DIQMTQSPSSLSASVGDRVTITCRASQDIYNYLNWYQQKPGKAVKLLIYYTSRLETGVPSRFSGSGSGTDYTLTISSLQPEDFATYFCQQGDELPWTFGQGTKLEIKR	µg/mL	0.063
20BLM (antibody, human IgG1, kappa, L234A L235A, V domains shown) VH: EVQLVQSGAEVKKPGASVKVSCKASGYTFTSYDMHWVRQAPGQGLEWMGRIDPQSGGEKYAQKFQGRATLTVDTSTSTAYMELSRLRSDDTAVYYCARYDYGGYFDVWGQGTLVTVSS VL: DIQMTQSPSSLSASVGDRVTITCRASQDIYNYLNWYQQKPGKAVKLLIYYTSRLETGVPSRFSGSGSGTDYTLTISSLQPEDFATYFCQQGDTLPWTFGQGTKLEIKR	µg/mL	0.033

Task: Data request, read-out Average EC50, for 13BLM (antibody, human IgG1, kappa, L234A L235A, V domains shown) VH: EVQLVQSGAEVKKPGASVKVSCKASGYTFTSYDMHWVRQAPGQGLEWMGRIDPQTGDIKYAQKFQGRATLTVDTSTSTAYMELSRLRSDDTAVYYCARWDYGGQFDVWGQGTLVTVSS VL: DIQMTQSPSSLSASVGDRVTITCRASQDIYNYLNWYQQKPGKAVKLLIYYTSGLETGVPSRFSGSGSGTDYTLTISSLQPEDFATYFCQQGDTLPWTFGQGTKLEIKR
Output: 0.092

Task: I have this binder here, 06BLM (antibody, human IgG1, L234A L235A, V domains shown, IgG1 L234A L235A D265S/kappa; also called 69BLH; 42BMD) VH: EVQLVQSGAEVKKPGASVKVSCKASGYTFTSYDMHWVRQAPGQGLEWMGRIDPQSGGIRYAQKFQGRATLTVDTSTSTAYMELSRLRSDDTAVYYCARWDYGGQFDVWGQGTLVTVSS VL: DIQMTQSPSSLSASVGDRVTITCRASQDIYNYLNWYQQKPGKAVKLLIYYTSILETGVPSRFSGSGSGTDYTLTISSLQPEDFATYFCQQGDTLPWTFGQGTKLEIK , and I need its recorded Average EC50.
Output: 0.125

Task: Please report the recorded Average EC50 for 18BLM (antibody, human IgG1, kappa, L234A L235A, V domains shown, IgG1 L234A L235A D265S/kappa; also called 81BLH; 54BMD) VH: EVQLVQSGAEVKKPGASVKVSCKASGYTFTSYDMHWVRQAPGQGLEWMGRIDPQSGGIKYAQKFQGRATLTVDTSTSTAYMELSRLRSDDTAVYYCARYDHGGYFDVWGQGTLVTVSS VL: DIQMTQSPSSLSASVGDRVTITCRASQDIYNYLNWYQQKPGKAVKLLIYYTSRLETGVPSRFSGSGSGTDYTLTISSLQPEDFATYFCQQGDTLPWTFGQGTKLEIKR .
Output: 0.052

Task: Any idea what Average EC50 was measured for 10BLM (antibody, human IgG1, kappa, L234A L235A, V domains shown) VH: EVQLVQSGAEVKKPGASVKVSCKASGYTFTSYDMHWVRQAPGQGLEWMGRIDPQSGGTKYAQKFQGRATLTVDTSTSTAYMELSRLRSDDTAVYYCARWDYGGYFDVWGQGTLVTVSS VL: DIQMTQSPSSLSASVGDRVTITCRASQDIYNYLNWYQQKPGKAVKLLIYYTSVLETGVPSRFSGSGSGTDYTLTISSLQPEDFATYFCQQGDTLPWTFGQGTKLEIKR ?
Output: 0.083

Task: Look at this binder and give its reported Average EC50. 08BLM (antibody, human IgG1, kappa, L234A L235A, V domains shown) VH: EVQLVQSGAEVKKPGASVKVSCKASGYTFTSYDMHWVRQAPGQGLEWMGRIDPQSGGTKYAQKFQGRATLTVDTSTSTAYMELSRLRSDDTAVYYCARWDYGGQFDVWGQGTLVTVSS VL: DIQMTQSPSSLSASVGDRVTITCRASQDIYNYLNWYQQKPGKAVKLLIYYTSGLETGVPSRFSGSGSGTDYTLTISSLQPEDFATYFCQQGDTLPWTFGQGTKLEIKR
Output: 0.076

Values were extracted from patent US20230272056A1.
